molecular target: Farnesyltransferase (FTase) (Bos taurus, UniProt P29702+P49355); construct: precipitation from a beef brain homogenate; from tissue; host or cells: bovine brain; test: Farnesyltransferase inhibition (scintillation proximity assay, [3H]-FPP / biotin-K-ras peptide); type: biochemical, bovine; conditions: compound at 10^−6 M; bovine FTase, 37° C., 30 minutes
Counter-ions that a name gives are not always drawn.

| Compound | inhibition at 1 µM |
| --- | --- |
| Cc1ccccc1-c1cc(CN(Cc2ccccc2)Cc2cncn2C)ccc1C#N [Example 32, dihydrochloride] | 93% |
| COc1cc(COC(c2ccc(C#N)c(-c3ccccc3C)c2)c2cncn2C)cc(OC)c1 (stereo not drawn) [Example 150, hydrochloride] | 93% |
| Cn1cncc1CN(Cc1ccc(C#N)c(-c2cccc3ccccc23)c1)C(=O)c1cnc(Cl)c(Cl)c1 | 89% |
| Cn1cncc1CN(Cc1cccc(Cl)c1)c1ccc(C#N)c(-c2cccc3ccccc23)c1 | 100% |
| Cn1cncc1C(OCc1ccc(C#N)c(I)c1)c1ccc(C#N)c(-c2cccc3ccccc23)c1 (stereo not drawn) [Example 63, hydrochloride] | 100% |
| Cc1ccccc1-c1cc(C(OCc2noc(-c3ccccc3)n2)c2cncn2C)ccc1C#N (stereo not drawn) [Example 171, hydrochloride] | 75% |
| CCCCN(Cc1ccc(C#N)cc1)C(c1ccc(C#N)c(-c2cccc3ccccc23)c1)c1cncn1C (stereo not drawn) [Example 30, dihydrochloride] | 100% |
| Cn1cncc1C(OCc1ccccc1)c1ccc(C#N)c(-c2ccc3ccccc3c2)c1 (stereo not drawn) [Example 92, hydrochloride] | 53% |
| Cn1cncc1C(OCc1ccc(C(N)=O)cn1)c1ccc(C#N)c(-c2cccc3cccnc23)c1 (stereo not drawn) [Example 244, trihydrochloride] | 90% |
| Cn1cncc1C(OCc1ccccc1)c1ccc(C#N)c(-c2ccccc2)c1 (stereo not drawn) [Example 87, hydrochloride] | 89% |
| Cn1cncc1CN(Cc1ccc(Cl)cc1)Cc1ccc(C#N)c(-c2cccc3ccccc23)c1 [Example 40, dihydrochloride] | 100% |
| Cn1cncc1C(OCc1ccc(C#N)cc1)c1ccc(C#N)c(-c2cccc3cnccc23)c1 (stereo not drawn) | 100% |
| Cc1ccccc1-c1cc(C(O)c2cncn2C)ccc1C#N (stereo not drawn) | 86% |
| Cc1ccccc1-c1cc(C(OCc2noc(C(C)(C)C)n2)c2cncn2C)ccc1C#N (stereo not drawn) [Example 159, hydrochloride] | 91% |
| Cc1ccccc1-c1cc(N(Cc2ccccc2)Cc2cncn2C)ccc1C#N | 100% |
| Cn1cncc1C(OCc1ccc(Cl)cc1)c1ccc(C#N)c(-c2cccc3ccccc23)c1 (stereo not drawn) [Example 66, hydrochloride] | 100% |
| COc1cccc(-c2nc(COC(c3ccc(C#N)c(-c4ccccc4C)c3)c3cncn3C)no2)c1 (stereo not drawn) [Example 173, hydrochloride] | 80% |
| Cc1ccccc1-c1cc(C(OCc2ccc(-c3ccccc3C#N)cc2)c2cncn2C)ccc1C#N (stereo not drawn) [Example 145, hydrochloride] | 97% |
| Cc1ccccc1-c1cc(C(NCC2CCCCC2)c2cncn2C)ccc1C#N (stereo not drawn) | 100% |
| Cn1cncc1C(OCc1ncc(C(F)(F)F)cc1Cl)c1ccc(C#N)c(-c2cccc3cccnc23)c1 (stereo not drawn) | 90% |
| Cn1cncc1C(OCc1ccc(C#N)cc1)c1ccc(C#N)c(-c2ccc(Cl)cc2Cl)c1 (stereo not drawn) [Example 202, hydrochloride] | 92% |
| Cc1ccccc1-c1cc(C(OCc2ccc(OCc3ccccc3)cc2)c2cncn2C)ccc1C#N (stereo not drawn) [Example 155, hydrochloride] | 92% |
| COC(=O)c1ccc(COC(c2ccc(C#N)c(-c3ccccc3C(F)(F)F)c2)c2cncn2C)nc1 (stereo not drawn) [Example 277, dihydrochloride] | 95% |
| Cc1ccccc1-c1cc(C(OCc2ccc(Br)cc2)c2cncn2C)ccc1C#N (stereo not drawn) [Example 119, hydrochloride] | 93% |
| Cn1cncc1C(O)(C#Cc1ccccc1)c1ccc(C#N)c(-c2cccc3ccccc23)c1 (stereo not drawn) | 100% |
| Cn1cncc1C(NCc1ccc(Cl)cc1)c1ccc(C#N)c(-c2cccc3ccccc23)c1 (stereo not drawn) | 100% |
| Cc1ccccc1-c1cc(NCc2cccnc2)ccc1C#N | 27% |
| Cn1cncc1C(OCc1ccc(C#N)c(Cl)c1)c1ccc(C#N)c(-c2cccc3ccccc23)c1 (stereo not drawn) [Example 61, hydrochloride] | 100% |
| Cc1cccc(-c2cc(C(OCc3ccc(C#N)cn3)c3cncn3C)ccc2C#N)c1C (stereo not drawn) [Example 281, dihydrochloride] | 98% |
| COc1ccc([N+](=O)[O-])cc1COC(c1ccc(C#N)c(-c2ccccc2C)c1)c1cncn1C (stereo not drawn) [Example 122, hydrochloride] | 94% |

---

target: Farnesyltransferase (FTase) (Bos taurus, UniProt P29702+P49355); construct: precipitation from a beef brain homogenate; from tissue; host or cells: bovine brain; assay: Farnesyltransferase inhibition (scintillation proximity assay, [3H]-FPP / biotin-K-ras peptide); assay type: biochemical, bovine; conditions: compound at 10^−6 M; bovine FTase, 37° C., 30 minutes
Structures can show the parent of a compound that is named as a salt.
Here, each record is paired with measured inhibition at 1 µM data.
Measured quantity: inhibition at 1 µM (%)

| Molecule | Target system | Result |
| --- | --- | --- |
| Cc1ccccc1-c1cc(C(NC2CCN(C(=O)c3ccccc3)CC2)c2cncn2C)ccc1C#N (stereo not shown) [Example 16, dihydrochloride] | Farnesyltransferase (FTase) (Bos taurus, UniProt P29702+P49355) | 100 |
| Cn1cncc1CN(Cc1ccccc1)c1ccc(C#N)c(-c2cccc3ccccc23)c1 | Farnesyltransferase (FTase) (Bos taurus, UniProt P29702+P49355) | 100 |
| Cn1cncc1C(NC1CCN(Cc2ccccc2)CC1)c1ccc(C#N)c(-c2cccc3ccccc23)c1 (stereo not shown) [Example 55, trihydrochloride] | Farnesyltransferase (FTase) (Bos taurus, UniProt P29702+P49355) | 100 |
| Cn1cncc1CN(Cc1ccc(C#N)c(-c2cccc3ccccc23)c1)Cc1cc(OC(F)(F)F)ccc1O | Farnesyltransferase (FTase) (Bos taurus, UniProt P29702+P49355) | 91 |

---

Biological target: Farnesyltransferase (FTase) (Bos taurus, UniProt P29702+P49355)
Construct: precipitation from a beef brain homogenate; from tissue; host or cells: bovine brain
Test: Farnesyltransferase inhibition (scintillation proximity assay, [3H]-FPP / biotin-K-ras peptide)
Format: biochemical, bovine
Details: compound at 10^−6 M; bovine FTase, 37° C., 30 minutes
Source text: Farnesyltransferase (FTase) or geranylgeranyltransferase I (GGTase I) fractions were isolated from bovine brains and purified by a series of methods which separate FTase from GGTase I and GGTase I from GGTase II. The methods involved a partial purification of all three enzymes by precipitation from a beef brain homogenate with 30% to 50% saturated […] followed by chromatography on DEAE Sepharose. […]
Where a name gives a salt, the structure may show the parent alone.
Here, each record is paired with measured inhibition at 1 µM data.

| Molecule | Target system | inhibition at 1 µM, % |
| --- | --- | --- |
| Cc1ccccc1-c1cc(C(OCc2cc(F)cc3c2OCOC3)c2cncn2C)ccc1C#N (stereo not shown) [Example 156, hydrochloride] | Farnesyltransferase (FTase) (Bos taurus, UniProt P29702+P49355) | 92 |
| Cn1cncc1C(OCc1ccc(C(=O)O)cc1)c1ccc(C#N)c(-c2cccc3cccnc23)c1 (stereo not shown) [Example 243, dihydrochloride] | Farnesyltransferase (FTase) (Bos taurus, UniProt P29702+P49355) | 82 |
| Cn1cncc1C(OCc1ccccc1)c1ccc(C#N)c(-c2ccsc2)c1 (stereo not shown) [Example 90, hydrochloride] | Farnesyltransferase (FTase) (Bos taurus, UniProt P29702+P49355) | 90 |
| CCN(Cc1ccc(C#N)cc1)C(c1ccc(C#N)c(-c2ccccc2C)c1)c1cncn1C (stereo not shown) [Example 28, dihydrochloride] | Farnesyltransferase (FTase) (Bos taurus, UniProt P29702+P49355) | 100 |
| Cn1cncc1C(NC1CCN(C(=O)OCc2ccccc2)CC1)c1ccc(C#N)c(-c2cccc3ccccc23)c1 (stereo not shown) [Example 54, dihydrochloride] | Farnesyltransferase (FTase) (Bos taurus, UniProt P29702+P49355) | 100 |
| Cn1cncc1C(OCc1ccc(F)c(C(F)(F)F)c1)c1ccc(C#N)c(-c2cccc3cccnc23)c1 (stereo not shown) [Example 242, dihydrochloride] | Farnesyltransferase (FTase) (Bos taurus, UniProt P29702+P49355) | 98 |
| Cn1cncc1C(OCc1ccc(C(F)(F)F)c(F)c1)c1ccc(C#N)c(-c2ccccc2C(F)(F)F)c1 (stereo not shown) [Example 249, hydrochloride] | Farnesyltransferase (FTase) (Bos taurus, UniProt P29702+P49355) | 98 |
| Cc1ccccc1-c1cc(C(OCc2ccc(Cl)cc2Cl)c2cncn2C)ccc1C#N (stereo not shown) [Example 157, hydrochloride] | Farnesyltransferase (FTase) (Bos taurus, UniProt P29702+P49355) | 97 |
| Cc1cccc(-c2cc(C(OCc3ccccc3)c3cncn3C)ccc2C#N)c1 (stereo not shown) [Example 91, hydrochloride] | Farnesyltransferase (FTase) (Bos taurus, UniProt P29702+P49355) | 94 |
| Cn1cncc1CN(Cc1ccc(C#N)c(-c2cccc3ccccc23)c1)C(=O)c1ccc(Cl)c(F)c1 [Example 198] | Farnesyltransferase (FTase) (Bos taurus, UniProt P29702+P49355) | 94 |
| Cn1cncc1C(OCc1ccc(Cl)c(Cl)c1)c1ccc(C#N)c(-c2cccc3cccnc23)c1 (stereo not shown) [Example 240, dihydrochloride] | Farnesyltransferase (FTase) (Bos taurus, UniProt P29702+P49355) | 95 |
| CN(C)C(=O)c1ccc(COC(c2ccc(C#N)c(-c3cccc4ccccc34)c2)c2cncn2C)cc1 (stereo not shown) [Example 70, hydrochloride] | Farnesyltransferase (FTase) (Bos taurus, UniProt P29702+P49355) | 100 |
| COC(=O)c1ccc(COC(c2ccc(C#N)c(-c3ccccc3C)c2)c2cncn2C)cc1 (stereo not shown) [Example 130, hydrochloride] | Farnesyltransferase (FTase) (Bos taurus, UniProt P29702+P49355) | 97 |
| CC(C)c1ccccc1-c1cc(C(OCc2ccccc2)c2cncn2C)ccc1C#N (stereo not shown) [Example 8, hydrochloride] | Farnesyltransferase (FTase) (Bos taurus, UniProt P29702+P49355) | 100 |
| CCOC(=O)N1CCC(NC(c2ccc(C#N)c(-c3cccc4ccccc34)c2)c2cncn2C)CC1 (stereo not shown) [Example 50, dihydrochloride] | Farnesyltransferase (FTase) (Bos taurus, UniProt P29702+P49355) | 100 |
| Cn1cncc1C(NCc1ccc(C#N)c(Br)c1)c1ccc(C#N)c(-c2cccc3ccccc23)c1 (stereo not shown) [Example 33, dihydrochloride] | Farnesyltransferase (FTase) (Bos taurus, UniProt P29702+P49355) | 100 |
| Cn1cncc1CN(Cc1ccc(C#N)c(-c2cccc3ccccc23)c1)C(=O)c1ccc(Cl)c(Cl)c1 [Example 197] | Farnesyltransferase (FTase) (Bos taurus, UniProt P29702+P49355) | 93 |
| COc1cccc(COC(c2ccc(C#N)c(-c3ccccc3C)c2)c2cncn2C)c1 (stereo not shown) [Example 134, hydrochloride] | Farnesyltransferase (FTase) (Bos taurus, UniProt P29702+P49355) | 93 |
| Cc1ccccc1-c1cc(NCc2cncn2C)ccc1C#N [Example 225] | Farnesyltransferase (FTase) (Bos taurus, UniProt P29702+P49355) | 50 |
